Data origin, for the record: PubChem BioAssay

Parameter log fold change Tl+ flux: see the listing below.
system: R275C/beta4; assay: modulators of BK channel variants, profiling panel, selectivity assay, cell-based, U2OS BacMam, thallium flux, beta subunits (AID 1259406); conditions: at 30 µM;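 note: initial slope of Thallos dye fluorescence rise after thallium is added; log ratio against the mean of 0.3% DMSO vehicle wells on the same plate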
API note: the answer field is a bare number with no unit suffix.

Nc1nc(Cl)nc2c1ncn2[C@@H]1O[C@H](CO)[C@@H](O)[C@H]1O | 0.0509
O=C(O)CCSc1ccc2ccccc2c1 | -0.0121
COC(=O)C(C#N)=C1NC(C)=NC(SC)=C1C#N | -0.0352

Exercise: Form field: reported log fold change Tl+ flux of COc1cc(C(F)(F)F)nc2ccc(C#CCOC(=O)Nc3cccc(Cl)c3)cc12
Solution: -0.00958

Exercise: Form field: reported log fold change Tl+ flux of O=S(=O)(Oc1ccc(F)cc1F)c1cccc(S(=O)(=O)Oc2ccc(F)cc2F)c1
Solution: -0.144
